The values you see were collected from patent US9771369B2.

Molecular target: c-Kit kinase (Homo sapiens (Human), UniProt P10721)
Sequence (P10721 26-976): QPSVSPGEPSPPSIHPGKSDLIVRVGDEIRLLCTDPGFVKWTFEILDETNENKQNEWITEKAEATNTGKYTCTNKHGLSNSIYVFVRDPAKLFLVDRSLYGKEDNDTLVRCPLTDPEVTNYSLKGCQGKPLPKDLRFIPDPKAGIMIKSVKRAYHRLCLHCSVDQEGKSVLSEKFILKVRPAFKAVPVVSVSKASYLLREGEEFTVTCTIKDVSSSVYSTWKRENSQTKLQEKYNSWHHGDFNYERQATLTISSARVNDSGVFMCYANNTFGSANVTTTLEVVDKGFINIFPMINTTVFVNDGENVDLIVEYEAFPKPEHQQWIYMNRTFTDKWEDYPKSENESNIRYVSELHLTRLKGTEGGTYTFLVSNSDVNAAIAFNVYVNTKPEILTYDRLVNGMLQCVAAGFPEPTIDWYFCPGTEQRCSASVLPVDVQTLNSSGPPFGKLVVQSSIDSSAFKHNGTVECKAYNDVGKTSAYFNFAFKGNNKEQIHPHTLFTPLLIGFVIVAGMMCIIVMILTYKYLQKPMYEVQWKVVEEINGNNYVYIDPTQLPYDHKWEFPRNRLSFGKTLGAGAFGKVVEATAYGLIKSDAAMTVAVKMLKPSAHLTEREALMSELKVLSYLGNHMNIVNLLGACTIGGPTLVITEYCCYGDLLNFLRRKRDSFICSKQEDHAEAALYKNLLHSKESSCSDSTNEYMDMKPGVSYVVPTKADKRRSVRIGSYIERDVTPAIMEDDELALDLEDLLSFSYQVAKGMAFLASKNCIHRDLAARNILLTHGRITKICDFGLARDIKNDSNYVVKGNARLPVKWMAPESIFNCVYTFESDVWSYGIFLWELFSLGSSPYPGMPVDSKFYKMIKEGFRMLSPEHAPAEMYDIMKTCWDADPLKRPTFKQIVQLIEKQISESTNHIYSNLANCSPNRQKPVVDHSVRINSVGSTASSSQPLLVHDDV
Assay: c-Kit biochemical assay (AlphaScreen kinase activity)
We begin with a simple list: items and their reported IC50.

Sample answers from the record:
COc1ccc(-c2cc3c(N4CCC(c5nc(C)c(-c6ccccc6)[nH]5)CC4)ncnc3[nH]2)cn1
1 to 10 µM
COc1ccc(-c2[nH]c(C3CCN(c4ncnc5[nH]c(-c6ccc(C#N)cc6)cc45)CC3)nc2C(F)(F)F)cc1
0.0001 to 1 µM
CCOc1ccc(-c2[nH]c(C3CCN(c4ncnc5[nH]c(-c6ccnc(OC)c6)cc45)CC3)nc2C)cc1C
0.0001 to 1 µM

Then this compound:
Input line: Write down the reported IC50 of Fc1ccc(-c2cc3c(N4CCC(c5nc(C6CC6)c(-c6ccccc6)[nH]5)CC4)ncnc3[nH]2)cc1 , test system: c-Kit kinase (Homo sapiens (Human), UniProt P10721).
Output line: 0.0001 to 1 µM

---

Molecular target: c-Kit kinase (Homo sapiens (Human))
Assay: c-Kit biochemical assay (AlphaScreen kinase activity)
ENDPOINT_NAME: IC50

Worked set:
CNC(=O)c1cccc(-c2cc3c(N4CCC(c5nc(C)c(-c6ccccc6)[nH]5)CC4)ncnc3[nH]2)c1 [P-3049]
1 to 10 µM
Cc1ccc(-c2[nH]c(C3CCN(c4ncnc5[nH]c(-c6ccc(C#N)cc6)cc45)CC3)nc2C)cc1 [P-3089]
0.0001 to 1 µM
Cc1cc2c(N3CCC(C)(c4nc(C)c(-c5ccc(C(F)F)cc5)[nH]4)CC3)ncnc2[nH]1 [P-3184]
0.0001 to 1 µM
COc1ccc(-c2[nH]c(C3(C)CCN(c4ncnc5[nH]c(-c6ccc(OC)nc6)cc45)CC3)nc2C)cc1 [P-3156]
0.0001 to 1 µM
COc1ccc(-c2[nH]c(C3(C)CCN(c4ncnc5[nH]c(C)cc45)CC3)nc2C)cc1 [P-3063]
1 to 10 µM
Cc1ccc(-c2cc3c(N4CCC(c5nc(C)c(-c6ccccc6)[nH]5)CC4)ncnc3[nH]2)cn1 [P-3074]
0.0001 to 1 µM

Next item in the queue.
Input line: Test system c-Kit kinase (Homo sapiens (Human)); read-out IC50; what value for Cc1nc(C2CCN(c3ncnc4[nH]c(-c5ccc(C#N)cc5)cc34)CC2)[nH]c1-c1ccc2c(c1)OCCO2 [P-3132] ?
Output line: 0.0001 to 1 µM

---

molecules and their reported IC50
Molecular target: c-Kit kinase (Homo sapiens (Human))
Test: c-Kit biochemical assay (AlphaScreen kinase activity)

Reference set (2 entries):
Cc1nc(C2CCN(c3ncnc4[nH]c(-c5ccnc(OC(C)C)c5)cc34)CC2)[nH]c1-c1ccccc1
0.0001 to 1 µM
COc1ccc(-c2[nH]c(C3(C)CCN(c4ncnc5[nH]c(-c6ccc(C(N)=O)cc6)cc45)CC3)nc2C)cc1C
0.0001 to 1 µM

Consider now this further molecule.
Input line: Which IC50 is listed for CCc1ccc(-c2[nH]c(C3CCN(c4ncnc5[nH]c(-c6ccc(C#N)cc6)cc45)CC3)nc2C)cc1 ?
Output line: 0.0001 to 1 µM

---

Target: c-Kit kinase (Homo sapiens (Human))
Assay: c-Kit biochemical assay (AlphaScreen kinase activity)
This listing pairs compounds with measured IC50.

Here is how some compounds turned out for IC50.
Cc1nc(C2(C)CCN(c3ncnc4[nH]c(-c5cnn(C(F)F)c5)cc34)CC2)[nH]c1-c1ccc(C(F)F)cc1 [P-3189]
0.0001 to 1 µM
CNC(=O)c1ccc(-c2cc3c(N4CCC(C)(c5nc(C)c(-c6cccc(OC(F)F)c6)[nH]5)CC4)ncnc3[nH]2)cn1 [P-3236]
0.0001 to 1 µM
COc1ccc(-c2nc(C3(C)CCN(c4ncnc5[nH]c(C)cc45)CC3)[nH]c2C)cn1 [P-3186]
1 to 10 µM
COc1cc(-c2[nH]c(C3CCN(c4ncnc5[nH]c(-c6ccc(C#N)cc6)cc45)CC3)nc2C)ccc1C [P-3106]
1 to 10 µM
CCc1[nH]c(C2CCN(c3ncnc4[nH]c(-c5cnn(C(F)F)c5)cc34)CC2)nc1C [P-3197]
1 to 10 µM
Cc1nc(C2(C)CCN(c3ncnc4[nH]c(-c5ccc(NS(C)(=O)=O)cc5)cc34)CC2)[nH]c1-c1ccc(C(F)F)cc1 [P-3252]
0.0001 to 1 µM
Cc1nc(C2CCN(c3ncnc4[nH]c(-c5ccc(F)cc5)cc34)CC2)[nH]c1-c1ccc(OC(F)(F)F)cc1 [P-3085]
0.0001 to 1 µM
Cc1nc(C2(C)CCN(c3ncnc4[nH]c(-c5ccc(C#N)cc5)cc34)CC2)[nH]c1-c1ccc(Cl)cc1 [P-3180]
0.0001 to 1 µM

Input line: Which IC50 is reported for this compound? CCOc1cc(-c2[nH]c(C3CCN(c4ncnc5[nH]c(-c6ccc(C#N)cc6)cc45)CC3)nc2C)ccc1C [P-3095]
Output line: 0.0001 to 1 µM

Input line: IC50 lookup needed for Cc1ccc(-c2[nH]c(C3CCN(c4ncnc5[nH]c(-c6ccc(F)cc6)cc45)CC3)nc2C)cc1 [P-3062] , thanks.
Output line: 0.0001 to 1 µM

Input line: Need IC50 of COc1ccc(-c2cc3c(N4CCC(C)(c5nc(C)c(-c6cccc(OC(F)F)c6)[nH]5)CC4)ncnc3[nH]2)cn1 [P-3193] , thanks.
Output line: 0.0001 to 1 µM

Input line: Could you tell me which IC50 is on file for COc1ccc(-c2cc3c(N4CCC(C)(c5nc(C)c(-c6ccc(OC)c(F)c6)[nH]5)CC4)ncnc3[nH]2)cn1 [P-3188] ?
Output line: 0.0001 to 1 µM

Input line: Look up IC50 for this compound: Cc1nc(C2CCN(c3ncnc4[nH]c(-c5cnn(C)c5)cc34)CC2)[nH]c1-c1ccccc1 [P-3046]
Output line: 0.0001 to 1 µM

Input line: Requested read-out: IC50. Entry: CCOc1ccc(-c2[nH]c(C3(C)CCN(c4ncnc5[nH]c(-c6ccc(N7CCOCC7)nc6)cc45)CC3)nc2C)cc1 [P-3227]
Output line: 0.0001 to 1 µM

Input line: Which value of IC50 has been reported for COc1ccc(-c2[nH]c(C3(C)CCN(c4ncnc5[nH]c(-c6ccc(N7CCOCC7)nc6)cc45)CC3)nc2C)cc1C [P-3219] in the records?
Output line: 0.0001 to 1 µM
